Assay: Compound induced cellular toxicity in HepG2 cells (ATPlite)
Type: cell-based
Details: human, three days, ATPlite 1 Step, concentration reducing total ATP levels by 50% relative to no drug controls
Listing of entries alongside the reported CC50 at 3 days.

| SMILES_NOTATION | CC50 at 3 days |
| --- | --- |
| CC(C)(C)[C@@H]1Cc2c(oc3cc(-c4cn[nH]c4)ccc23)-c2cc(=O)c(C(=O)O)cn21 | > 25 µM |
| CC(C)(C)[C@@H]1Cc2c(oc3c(-c4nccs4)cccc23)-c2cc(=O)c(C(=O)O)cn21 | 10 to 25 µM |
| CC(C)(C)[C@@H]1Cc2c(oc3c(-c4cnsc4)cccc23)-c2cc(=O)c(C(=O)O)cn21 | 10 to 25 µM |
| CC(C)[C@@H]1Cc2c(oc3c(C#N)cccc23)-c2cc(=O)c(C(=O)O)cn21 | > 25 µM |
| CC(C)(C)[C@@H]1Cc2c(oc3c(C#N)cccc23)-c2c(F)c(=O)c(C(=O)O)cn21 | > 25 µM |
| CCc1ccc2c3c(oc2c1)-c1cc(=O)c(C(=O)O)cn1[C@H](C(C)(C)C)C3 | > 25 µM |
| CC(C)(C)[C@@H]1Cc2c(oc3ccccc23)-c2cc(=O)c(C(=O)O)cn21 | > 25 µM |
| CC(C)[C@@H]1Cc2c(oc3c(-n4cccn4)cccc23)-c2cc(=O)c(C(=O)O)cn21 | > 25 µM |
| CC(C)(C)[C@@H]1Cc2c(oc3c(-c4cnco4)cccc23)-c2cc(=O)c(C(=O)O)cn21 | 10 to 25 µM |
| CC(C)(C)[C@@H]1Cc2c(oc3c(C4CC4)cccc23)-c2cc(=O)c(C(=O)O)cn21 | 10 to 25 µM |

Source listed as patent US10865211B2.
